Exercise: for every item that follows, state its recorded inhibition.
Biological target: Tyrosine-protein phosphatase non-receptor type 22 (Homo sapiens) (UniProt Q9Y2R2)
Sequence (Q9Y2R2 whole entry, looked up, the tested form may be a part): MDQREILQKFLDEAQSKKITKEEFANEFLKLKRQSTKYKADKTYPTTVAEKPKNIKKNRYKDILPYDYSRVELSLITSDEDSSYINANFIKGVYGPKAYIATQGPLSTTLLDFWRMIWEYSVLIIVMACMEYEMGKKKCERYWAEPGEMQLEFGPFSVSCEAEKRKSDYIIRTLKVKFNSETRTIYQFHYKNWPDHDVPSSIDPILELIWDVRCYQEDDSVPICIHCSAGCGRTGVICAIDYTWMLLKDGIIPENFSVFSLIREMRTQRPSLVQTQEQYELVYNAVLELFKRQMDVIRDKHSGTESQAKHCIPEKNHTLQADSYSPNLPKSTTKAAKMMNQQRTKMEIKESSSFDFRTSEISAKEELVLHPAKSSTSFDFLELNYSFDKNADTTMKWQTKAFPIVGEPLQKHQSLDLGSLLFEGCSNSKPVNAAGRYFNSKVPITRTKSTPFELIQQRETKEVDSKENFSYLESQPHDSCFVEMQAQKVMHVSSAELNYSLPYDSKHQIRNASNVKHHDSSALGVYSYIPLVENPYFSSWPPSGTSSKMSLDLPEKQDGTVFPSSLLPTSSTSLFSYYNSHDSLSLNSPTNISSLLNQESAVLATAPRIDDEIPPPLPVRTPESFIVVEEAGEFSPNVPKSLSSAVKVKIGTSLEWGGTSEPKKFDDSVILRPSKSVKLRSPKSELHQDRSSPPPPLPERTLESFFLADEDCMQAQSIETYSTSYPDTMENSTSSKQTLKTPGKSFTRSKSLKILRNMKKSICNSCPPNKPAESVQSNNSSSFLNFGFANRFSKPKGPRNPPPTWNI
Test: LYP phosphatase inhibitors, primary screen, biochemical, DiFMUP fluorescence, recombinant catalytic domain, 10 µM (AID 606)
Conditions: at 10 µM, hits give high values
The campaign covered roughly 52,000 compounds. Fewer than 10 were called active. The list is a sample of the results.
One number for each entry, in %.

Examples with answers:
molecule	inhibition / %
NC(=O)NC(=O)COC(=O)CCCc1c[nH]c2ccccc12	1.43
CCn1c(SCCC#N)nnc1-c1ccncc1	5.61
CCOC(=O)c1ccc(-c2n[nH]c(=O)c3ccccc23)cc1	-0.81
CSc1nc2c(c(=O)n1Cc1ccccc1)SC(C)C2 (stereo unspecified)	0.73
Cn1c(CN2CCOCC2)nc2cc(NC(=O)c3ccccc3Cl)ccc21	10.7

Okay, here is my list. What is inhibition for each of these?
1. O=C(C1CCN(c2nnc(-n3cccc3)s2)CC1)N1CCN(c2cccc(C(F)(F)F)c2)CC1
2. CCOC(=O)CSc1nc2c(c(=O)[nH]c(=O)n2C)n1CCc1ccccc1
3. O=C(Cn1cnc2ccccc2c1=O)N1CCN(Cc2ccccc2)CC1
4. O=C(C1CCN(S(=O)(=O)c2cccc3cccnc23)CC1)N1CCc2ccccc21
5. Cc1ccc(S(=O)(=O)/N=C(/Nc2nc(C)cc(C)n2)N2CCOCC2)cc1
6. COCCN(CCOC)C(=O)c1c[nH]c2ccc(S(=O)(=O)N(C)c3ccc(F)cc3)cc2c1=O

Result:
1: -2.18; 2: 12; 3: 15.4; 4: 2.25; 5: 2.14; 6: -2.71

---

Target: Tyrosine-protein phosphatase non-receptor type 22 (Homo sapiens) (UniProt Q9Y2R2)
Test: LYP phosphatase inhibitors, primary screen, biochemical, DiFMUP fluorescence, recombinant catalytic domain, 10 µM (AID 606)
Conditions: at 10 µM, hits give high values
Screen size: about 52,000 compounds; fewer than 10 were called active. The list is a sample of the results.
Would you please tag the item condition met when its inhibition is 10% or above, and condition not met when it is below?

// known answers, use as guide
molecule	qualitative_label
CCN(CC)c1ccc(NC(=O)c2ccco2)c(C)c1	condition met
COc1cccc2cc(-c3cn4cccc(C)c4n3)c(=O)oc12	condition not met
COc1ccc(N(CC(=O)N2CCc3ccccc3C2)S(=O)(=O)c2c(C)nn(C)c2C)cc1	condition not met
CCN(CC)C(c1ccc(F)cc1)c1nnnn1C1CCCCC1 (stereo unspecified)	condition not met
Cc1ccc2c(c1)N(CC(=O)NCc1cccs1)C(=O)CO2	condition not met

Q: Dear colleague, could you confirm whether `COc1cc2c(cc1OC)CN(C(=O)Cc1ccc(OC)c(S(=O)(=O)N3CCOCC3)c1)CC2` has inhibition at or above 10%?
Result: condition not met

Q: Dear colleague, could you confirm whether `Cc1cc(C)c(S(=O)(=O)N(C)Cc2cnn(C)c2)c(C)c1` has inhibition at or above 10%?
Result: condition not met

Q: Dear colleague, could you confirm whether `COC(=O)COC(=O)c1ccc(-n2nnnc2SC)cc1` has inhibition at or above 10%?
Result: condition met

Q: Dear colleague, could you confirm whether O=C(NCc1ccco1)C1CCCN(S(=O)(=O)c2ccc(-n3cnnn3)cc2)C1 (stereo unspecified) has inhibition at or above 10%?
Result: condition met

Q: Dear colleague, could you confirm whether `CCCC(=O)C1=C(c2ccccc2)C(C#N)(C#N)C(C#N)=C1N` has inhibition at or above 10%?
Result: condition met

Q: Dear colleague, could you confirm whether `Cn1c(SCC(=O)N2CCCCC2)nnc1-c1ccc(S(=O)(=O)N2CCOCC2)cc1` has inhibition at or above 10%?
Result: condition met

---

Molecular target: Tyrosine-protein phosphatase non-receptor type 22 (Homo sapiens) (UniProt Q9Y2R2)
Experiment: LYP phosphatase inhibitors, primary screen, biochemical, DiFMUP fluorescence, recombinant catalytic domain, 10 µM (AID 606)
Conditions: at 10 µM, hits give high values
The campaign covered roughly 52,000 compounds. Fewer than 10 were called active. The list is a sample of the results.
Exercise: for every item that follows, state its recorded inhibition.

compound	system_under_test	inhibition
CCn1c(COc2cccc(C)c2)nnc1SCC(=O)Nc1cccc(C(=O)O)c1	Tyrosine-protein phosphatase non-receptor type 22 (Homo sapiens) (UniProt Q9Y2R2)	7.81% (inactive)

Okay, here is my list. What is inhibition for each of these?
1. N#CCCN(C(=O)c1ccco1)c1ccccc1
2. CC(C)n1c(C(O)c2ccc3c(c2)OCO3)nc2ccccc21 (stereo unspecified)
3. Cc1c(N2C(=O)C(C)SC23C(=O)Nc2ccccc23)c(=O)n(-c2ccccc2)n1C (stereo unspecified)
4. COc1ccc(-n2c(=O)[nH]cc(C(=O)N3CCCc4ccccc43)c2=O)cc1

Result:
9.22% (inactive)
5.85% (inactive)
4.85% (inactive)
2.14% (inactive)

---

Target: Tyrosine-protein phosphatase non-receptor type 22 (Homo sapiens) (UniProt Q9Y2R2)
Assay: LYP phosphatase inhibitors, primary screen, biochemical, DiFMUP fluorescence, recombinant catalytic domain, 10 µM (AID 606)
Settings: at 10 µM, hits give high values
Hit rate of the full screen: of about 52,000 compounds, fewer than 10 were called active. Not all results are given here.
measurement_label: inhibition (%)
Numbers only, in %.

compound	system_under_test	inhibition [%]
O=C(c1ccccc1)c1coc2ccc(O)c(CN3CCOCC3)c12	Tyrosine-protein phosphatase non-receptor type 22 (Homo sapiens) (UniProt Q9Y2R2)	4.43
COC(=O)C1C(=O)C2=C(CC1C)NC(C)=C(C(=O)OC(C)C)C2c1ccc(OC)c(O)c1 (stereo not drawn)	Tyrosine-protein phosphatase non-receptor type 22 (Homo sapiens) (UniProt Q9Y2R2)	8.85
CC1CCc2sc3nc(NCc4ccco4)n4ncnc4c3c2C1 (stereo not drawn)	Tyrosine-protein phosphatase non-receptor type 22 (Homo sapiens) (UniProt Q9Y2R2)	2.11
Cc1ccc(S(=O)(=O)NCCC(=O)NCc2ccccc2)cc1	Tyrosine-protein phosphatase non-receptor type 22 (Homo sapiens) (UniProt Q9Y2R2)	7.96
CCCn1c(NCc2ccco2)nc2ccccc21	Tyrosine-protein phosphatase non-receptor type 22 (Homo sapiens) (UniProt Q9Y2R2)	11.7
O=C(NCCCc1ccccc1)C1CCN(c2nnc(-n3cccc3)s2)CC1	Tyrosine-protein phosphatase non-receptor type 22 (Homo sapiens) (UniProt Q9Y2R2)	1.14
CCOc1ccc(NC(=O)CSc2nnc(-c3ccccn3)n2N)cc1	Tyrosine-protein phosphatase non-receptor type 22 (Homo sapiens) (UniProt Q9Y2R2)	6.01
CCc1ccc2c(COn3nnc4ccc(S(=O)(=O)N(C)C)cc43)cc(=O)oc2c1	Tyrosine-protein phosphatase non-receptor type 22 (Homo sapiens) (UniProt Q9Y2R2)	-1.03
CCN(CC)c1ccc(C(=O)OCC(=O)N2CCN(c3ccccc3)CC2)cc1	Tyrosine-protein phosphatase non-receptor type 22 (Homo sapiens) (UniProt Q9Y2R2)	0.55
CC(=O)OCP(C)(=O)COC(C)=O	Tyrosine-protein phosphatase non-receptor type 22 (Homo sapiens) (UniProt Q9Y2R2)	5.43

Okay, here is my list. What is inhibition for each of these?
1. CSc1nc(-c2ccco2)nn1S(=O)(=O)c1ccccc1
2. COc1ccc(C)cc1NC(=O)C1CCCN1S(=O)(=O)c1ccc2c(c1)CCC(=O)N2 (stereo not drawn)
3. Cc1c(NC(=O)C2CCCN(S(=O)(=O)c3cnc[nH]3)C2)c(=O)n(-c2ccccc2)n1C (stereo not drawn)
4. COc1ccc(N(CC(=O)Nc2ccc(OC)c(Cl)c2)S(=O)(=O)c2c(C)noc2C)cc1

Result:
1: -1.38; 2: 12; 3: 8.93; 4: 6.18

Okay, here is my list. What is inhibition for each of these?
1. COc1ccc(C)cc1NC(=O)CN1CCN(c2ccccc2F)CC1
2. CC1CCC(NC(=O)CN2C(=O)C3CCCN3c3ncc(Cl)cc32)CC1 (stereo not drawn)
3. Cc1cccc(Nc2ncnc3nc[nH]c23)c1
4. CNC(=O)c1ccccc1NC(=O)c1cccc(S(=O)(=O)N2CCC(C)CC2)c1
5. NC(=O)c1ccccc1NC(=O)CCCN1C(=O)CCC1=O
6. O=C(CSc1nnc(-c2ccccn2)n1Cc1ccco1)c1ccc(-c2ccccc2)cc1

Result:
1: 9.06; 2: -36.6; 3: -1.47; 4: -7.79; 5: 14.4; 6: -10.3

---

Molecular target: Tyrosine-protein phosphatase non-receptor type 22 (Homo sapiens)
Assay: LYP phosphatase inhibitors, primary screen, biochemical, DiFMUP fluorescence, recombinant catalytic domain, 10 µM (AID 606)
Details: at 10 µM, hits give high values
Out of some 52,000 compounds screened, fewer than 10 were called active. Only a sample is shown.
measurement_label: inhibition

Examples with answers:
compound	inhibition
O=C1CC(c2ccc3c(c2)OCO3)Sc2nc3ccccc3n21 (stereo unspecified)	11.4% (inactive)
CCCSCCCNC(=O)CC1Oc2ccccc2NC1=O (stereo unspecified)	2.3% (inactive)
O=C(CCS(=O)(=O)Cc1ccccc1)N1CCN(Cc2ccccc2)CC1	-7.91% (inactive)

Okay, here is my list. What is inhibition for each of these?
1. COc1ccc(N2CCN(C(=O)C(Cc3ccccc3)n3cccc3)CC2)cc1 (stereo unspecified)
2. O=C(O)CCc1ccc(-c2ccccc2)n1NC(=O)c1ccco1
3. CC(C)C(NC(=O)C1CCCCC1)C(=O)Nc1ccc2c(c1)OCCO2 (stereo unspecified)
4. CCCn1cnc2cc(NCc3ccccn3)ccc21

Result:
1: -12.6% (inactive); 2: 13.5% (inactive); 3: 5.06% (inactive); 4: 6.61% (inactive)

Okay, here is my list. What is inhibition for each of these?
1. Cc1nnc(NCc2ccco2)c2ccccc12
2. CCOc1ccccc1N(C(=O)Cn1nnnc1-c1ccc(C)o1)C(CC)C(=O)NC(C)(C)C (stereo unspecified)
3. O=C(CN1CCN(S(=O)(=O)c2ccc(Br)cc2)CC1)Nc1ccc2c(c1)OCO2
4. COCC(C)n1c(C)cc(C(=O)COC(=O)c2ccc3ncsc3c2)c1C (stereo unspecified)

Result:
5.7% (inactive)
7.35% (inactive)
14.6% (inactive)
-12.6% (inactive)
